- assay_target: LTD4 evoked contractions of guinea pig ileum (Cavia porcellus)
- Construct: A section of terminal ileum was removed, the lumen cleaned, and the tissue divided into 2.5 cm. segments; from tissue; host or cells: terminal ileum of male Hartley guinea pigs
- Sequence (Q2NNR5 1-340): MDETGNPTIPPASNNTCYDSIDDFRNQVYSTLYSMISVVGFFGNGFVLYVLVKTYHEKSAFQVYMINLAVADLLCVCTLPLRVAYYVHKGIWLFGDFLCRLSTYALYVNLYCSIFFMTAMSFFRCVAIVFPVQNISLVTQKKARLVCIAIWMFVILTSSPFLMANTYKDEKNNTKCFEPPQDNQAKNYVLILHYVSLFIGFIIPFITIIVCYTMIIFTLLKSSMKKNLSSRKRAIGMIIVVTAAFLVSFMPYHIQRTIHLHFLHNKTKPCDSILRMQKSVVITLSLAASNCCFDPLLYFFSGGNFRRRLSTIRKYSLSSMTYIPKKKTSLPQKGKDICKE
- experiment_notes: LTD4 antagonism, cumulative concentration-response curves (Schild pA2)
- Format: cell-based
- test_context: 30 minute incubation, negative log of KB
- Method: For some of the drugs in this series a more detailed analysis of LTD4 antagonism was made. In these experiments, cumulative concentration-response curves were obtained to LTD4 in guinea pig ileum and trachea. This was followed by a 30 minute incubation with various concentrations of the experimental drug. The concentration response curve to LTD4 was then repeated in the presence of the antagonist. […] KB values were calculated by the method of Furchgott [Ann. […]
quantity_measured: Kb (nM)

Look over these answered cases.
compound	quantity_measured	quantitative_readout
CCCc1c(COc2ccc(CC(=O)O)cc2)ccc(C(C)=O)c1O [Example 12]	Kb	60.3
CCCc1c(COc2ccc(Cc3nnn[nH]3)cc2)ccc(C(C)=O)c1O [Example 33]	Kb	7.59
CCCc1c(C[S+]([O-])Cc2ccc(-c3nnn[nH]3)cc2)ccc(C(C)=O)c1O (stereo not drawn) [Example 53]	Kb	6310
CCCc1c(COc2ccc3cc(-c4nn[nH]n4)ccc3c2)ccc(C(C)=O)c1O [Example 41]	Kb	12.3

[1] CCc1c(COc2ccc(Cc3nnn[nH]3)cc2)ccc(C(C)=O)c1O [Example 44]
[2] CCCc1c(COc2ccc(-c3nnn[nH]3)cc2)ccc(C(C)=O)c1O [Example 32]
[3] CCCc1c(CSCc2ccc(-c3nnn[nH]3)cc2)ccc(C(C)=O)c1O [Example 38]
[4] CCCc1c(COc2ccc(C(=O)O)cc2)ccc(C(=O)c2ccccc2)c1O [Example 17]
[5] CCCc1c(CSc2ccc(-c3nnn[nH]3)cc2)ccc(C(C)=O)c1O [Example 40]
Query string: Ranking field: Kb; order: falling. Present the labels in the sequence the task asks for.
Result string: 4, 3, 5, 1, 2

* * *

inhibition at 1 µM overview
- Test system: LTD4 evoked contractions of guinea pig ileum
- experiment_notes: Percent inhibition of LTD4 evoked ileal contractions (single submaximal LTD4 response, 5 minute drug exposure)
- Assay type: cell-based, guinea pig (male, Hartley)
- test_context: Cavia porcellus, Compound concentration 1 × 10^-6 M
- Source text: Male, Hartley guinea pigs weighing 200-450 grams were killed by decapitation. A section of terminal ileum was removed, the lumen cleaned, and the tissue divided into 2.5 cm. segments. […] Isometric measurements were made with a Grass FTO3C force-displacement transducer and recorded on a Grass polygraph as change in grams of force. […]
Please give a number only; it is taken to be in %.

Before answering, review these 8 worked examples.
compound	unit_info	inhibition at 1 µM
CCCc1c(COc2ccc(C(=O)O)c(O)c2)ccc(C(C)=O)c1O [Example 13]	%	97
CCCc1c(COc2ccc3c(=O)cc(C(=O)O)oc3c2CCC)ccc(C(C)=O)c1O [Example 10]	%	97
CCCc1c(COc2cccc(C(=O)O)c2)ccc(C(C)=O)c1O [Example 14]	%	31
CCCc1c(C=Cc2ccc(-c3nn[nH]n3)cc2)ccc(C(C)=O)c1O [Example 45]	%	74
CCCc1c(COc2ccc(CC(=O)O)cc2)ccc(C(C)=O)c1O [Example 12]	%	91
CCCc1c(COCCCCc2nnn[nH]2)ccc(C(C)=O)c1O [Example 49]	%	64
CCCc1c(COc2ccc(C(=O)O)cc2)ccc(C(=O)c2ccccc2)c1O [Example 17]	%	5
CCCc1c(COc2ccc(Cc3nnn[nH]3)cc2)ccc(C(C)=O)c1O [Example 33]	%	100

Now turn to the next compound.
Query string: Which value of inhibition at 1 µM has been reported for CCCc1c(COc2ccc(OCC(=O)O)cc2)ccc(C(C)=O)c1O [Example 16] in the records?
Result string: 88
